Assignment: determine reported GI50 for the given compounds.
- System: HL-60
- EXPERIMENT NOTES: NCI tumour cell line growth inhibition, 48 h
Calls of active or inactive are those of the source. Cut-off read from the data, not from the text of the source: active = GI50 up to about 1.1 µM and inactive = higher.

# example entries with known answers
[
  {
    "COMPOUND": "CC(C)(C)C1CCC(CI)(N=[N+]=[N-])CC1 (stereo not drawn)",
    "QUANTITY": "GI50",
    "RESULT": "42.8 µM (inactive)"
  },
  {
    "COMPOUND": "C[C@]12CCC(O)CC1=CC[C@@H]1[C@@H]2CC[C@]2(C)C(O)[C@H](n3ccnc3)C[C@@H]12 (stereo partly drawn)",
    "QUANTITY": "GI50",
    "RESULT": "11.1 µM (inactive)"
  },
  {
    "COMPOUND": "COC(=O)C(CCCCN)NC(=O)C(CCCCN)NC(C)=O.Cc1ccc(C(=O)Nc2ccc(S(=O)(=O)O)c3cc(S(=O)(=O)O)cc(S(=O)(=O)O)c23)cc1NC(=O)c1cccc(NC(=O)Nc2cccc(C(=O)Nc3cc(C(=O)Nc4ccc(S(=O)(=O)O)c5cc(S(=O)(=O)O)cc(S(=O)(=O)O)c45)ccc3C)c2)c1",
    "QUANTITY": "GI50",
    "RESULT": "> 50 µM (inactive)"
  },
  {
    "COMPOUND": "c1ccc(CN(Cn2cccn2)Cn2cccn2)nc1",
    "QUANTITY": "GI50",
    "RESULT": "47.8 µM (inactive)"
  },
  {
    "COMPOUND": "O=C(Nc1ccccc1)c1cc(S(=O)(=O)Nc2n[nH]c(=O)[nH]2)c(SSc2cc(Cl)c(C(=O)Nc3ccccc3)cc2S(=O)(=O)Nc2n[nH]c(=O)[nH]2)cc1Cl",
    "QUANTITY": "GI50",
    "RESULT": "> 100 µM (inactive)"
  },
  {
    "COMPOUND": "CCCN(CCCC(NC(C)=O)C(=O)NCc1ccccc1)C(=O)NCCCl (stereo not drawn)",
    "QUANTITY": "GI50",
    "RESULT": "> 100 µM (inactive)"
  }
]

Kindly give each listed record's GI50.
1. COc1ccc2oc(-c3ccc(OC)c(OC)c3OC)cc(=O)c2c1
2. N=C(N)SCc1cccc([N+](=O)[O-])c1
3. O=C1C2C(C(=O)N1c1ccccc1)C1(Br)c3ccccc3C2(Br)C2C(=O)N(c3ccccc3)C(=O)C21 (stereo not drawn)
4. O=S(=O)(c1ccccc1)C1CN(Cc2ccccc2)CCN(Cc2ccccc2)C1
5. COC(=O)C(=Cc1cc(OC)c(OC)c(OC)c1-c1cc2c(cc1C(C)=O)OCO2)C(=O)OC
6. COC(=O)c1cccc(C)c1C1CN=NC12Cc1cc(C)cc(C)c1C2=O (stereo not drawn)
7. COCC(=O)OC1CCn2c1nc1c2C(=O)C(C)=C(NC(C)=O)C1=N (stereo not drawn)
8. COc1nc(C#CCCCC#N)nc(OC)n1

Output:
1. 18.6 µM (inactive)
2. 18.8 µM (inactive)
3. > 31.6 µM (inactive)
4. 5.92 µM (inactive)
5. 34.2 µM (inactive)
6. 17.9 µM (inactive)
7. 2.9 µM (inactive)
8. 4.13 µM (inactive)

Kindly give each listed record's GI50.
1. CC1/C=C/[C@@]2(C)CCC(C(C)(C)O)C2C(O)C[C@](C)(O)/C=C/C1 (stereo partly drawn)
2. O=C(O)[C@@H]1C[C@@H](O)CN1C(=O)OCc1ccccc1
3. COc1cc(C2c3[nH]c4ccccc4c3C[C@H]3COC(=O)N23)cc(OC)c1OC (stereo partly drawn)
4. Cc1ccc(/N=N/c2c(C)nn(C(=O)CC(=O)Nc3ccc(Cl)cc3)c2C)cc1C

Output:
1. 86.1 µM (inactive)
2. > 100 µM (inactive)
3. 0.0336 µM (active)
4. 24.4 µM (inactive)

----------
Assignment: determine reported GI50 for the given molecules.
- Tested on: A549
- EXPERIMENT NOTES: NCI tumour cell line growth inhibition, 48 h
Activity calls are given as the source filed them. Cut-off read from the data, not from the text of the source: active = GI50 up to about 1.1 µM and inactive = higher.

# example entries with known answers
[
  {
    "MOLECULE": "COc1nc(C#CCCCC#N)nc(OC)n1",
    "GI50": "15.8 µM (inactive)"
  },
  {
    "MOLECULE": "OC1(c2ccc3ccccc3c2)c2ccc3ccccc3c2C2=NCCN21 (stereo unspecified)",
    "GI50": "46.5 µM (inactive)"
  },
  {
    "MOLECULE": "CC(CC(N)C(=O)O)C(=O)O (stereo unspecified)",
    "GI50": "> 100 µM (inactive)"
  },
  {
    "MOLECULE": "O=C1C=C(Nc2ccc(S(=O)(=O)Nc3ncccn3)cc2)c2ccccc2C1=O",
    "GI50": "25.3 µM (inactive)"
  },
  {
    "MOLECULE": "COc1ccc(C2=NOC(N)(c3ccc(OC)cc3)C2)cc1 (stereo unspecified)",
    "GI50": "> 100 µM (inactive)"
  },
  {
    "MOLECULE": "COC(=O)C(=Cc1cc(OC)c(OC)c(OC)c1-c1cc2c(cc1C(C)=O)OCO2)C(=O)OC",
    "GI50": "55.6 µM (inactive)"
  }
]

Kindly give each listed record's GI50.
1. Oc1ccccc1C(Sc1nc2ccccc2s1)Sc1nc2ccccc2s1
2. CC(NC(=O)C(CC(=O)OCc1ccccc1)NC(=O)OCc1ccccc1)c1ccccc1 (stereo unspecified)
3. O=c1[nH]nc(-c2ccccc2)c(-c2ccccc2)c1-n1nc(-c2ccccc2)c2ccccc2c1=O
4. O=C1OC2C=CC1C1(CCOC1=O)C2 (stereo unspecified)
5. O=[N+]([O-])c1ccc(C2CC(c3ccccc3Cl)=Nc3ccccc3S2)cc1 (stereo unspecified)

Output:
["> 100 µM (inactive)", "73.5 µM (inactive)", "83.4 µM (inactive)", "> 100 µM (inactive)", "5.69 µM (inactive)"]

----------
- System: SR
- EXPERIMENT NOTES: NCI tumour cell line growth inhibition, 48 h
Activity calls are given as the source filed them. Rule as the data show it: active = GI50 up to about 1.1 µM and inactive = higher.
// one of class 1 for active, class 0 for inactive, no free text

Task: Field: outcome | Entry: C=C(Br)C(C)(Br)CCC(Br)C(C)(C)Br (stereo not given)
Output: class 0

Task: Field: outcome | Entry: `O=C1NC(=S)NC(=O)C1=CC1CC1`
Output: class 0

Task: Field: outcome | Entry: CCOC(=O)Oc1cc2c(c(OC)c1OC)-c1ccc(SC)c(=O)cc1C(NC(=O)C(F)(F)F)CC2 (stereo not given)
Output: class 1

Task: Field: outcome | Entry: O=C(C(O)c1cn(Cc2ccccc2)c2ccccc12)N1CCCCC1 (stereo not given)
Output: class 0

Task: Field: outcome | Entry: `CC(C)C(/C=C/c1ccccc1)=N\NC(=S)NN`
Output: class 1

Task: Field: outcome | Entry: CCCN(CCCC(NC(C)=O)C(=O)NCc1ccccc1)C(=O)NCCCl (stereo not given)
Output: class 0

Task: Field: outcome | Entry: O=C1CC2C=CC(O)C(C1)C2 (stereo not given)
Output: class 1

Task: Field: outcome | Entry: COC(=O)C(COC(=O)/C=C/c1ccc(OC(C)=O)c(OC(C)=O)c1)NC(=O)/C=C/c1ccc(OC(C)=O)c(OC(C)=O)c1 (stereo not given)
Output: class 0

Task: Field: outcome | Entry: CC1OC(OC2C(OC3CCC4(C)C(CCC5(C)C4CC=C4C6CC(C)(C)CCC6(C(=O)O)CCC45C)C3(C)CO)OCC(O)C2O)C(O)C(O)C1O (stereo not given)
Output: class 0

Task: Field: outcome | Entry: CCC1C(NC(=O)OC)C(=O)N1[C@@H](C)c1ccccc1 (stereo not given in full)
Output: class 0

----------
- Test system: OVCAR-3
- EXPERIMENT NOTES: NCI tumour cell line growth inhibition, 48 h
Active and inactive are the calls of the source. Cut-off read from the data, not from the text of the source: active = GI50 up to about 1.1 µM and inactive = higher.
QUANTITY: GI50

# example entries with known answers
[
  {
    "COMPOUND": "COc1ccc2c(c1)CCC(OS(=O)(=O)CC13CCC(CC1=O)C3(C)C)C2=O (centres undefined)",
    "RESULT": "25.7 µM (inactive)"
  },
  {
    "COMPOUND": "COc1ccccc1OCC(COC(=O)Nc1ccc(C)cc1)OC(=O)Nc1ccc(C)cc1 (centres undefined)",
    "RESULT": "17.3 µM (inactive)"
  },
  {
    "COMPOUND": "CC(NC(=O)C(CC(=O)OCc1ccccc1)NC(=O)OCc1ccccc1)c1ccccc1 (centres undefined)",
    "RESULT": "> 100 µM (inactive)"
  },
  {
    "COMPOUND": "O=C(O)c1c2c(cc3c1CC1(Cc4ccccc4C1)C3)CCC2",
    "RESULT": "68.1 µM (inactive)"
  }
]

Kindly give each listed record's GI50.
1. C[N+](C)(C)CC(=O)N/N=C(/Cc1nc2ccc(Cl)cc2nc1O)C1=NS(=O)(=O)c2cc(S(N)(=O)=O)c(Cl)cc2N1
2. CN(CCCNC(=O)c1nn(-c2ccc(Cl)cc2Cl)c2c1Cc1ccccc1-2)CCCNC(=O)c1nn(-c2ccc(Cl)cc2Cl)c2c1Cc1ccccc1-2
3. Cc1cc2c(C(C)C)c(O)c(O)c(C=O)c2c(O)c1-c1c(C)cc2c(C(C)C)c(O)c(O)c(C=O)c2c1O
4. CO[C@@H]1C=C[C@@]23c4cc5c(cc4C(=O)O[C@H]2CN(C)[C@H]3C1)OCO5

Output:
> 100 µM (inactive)
1.73 µM (inactive)
2.3 µM (inactive)
> 100 µM (inactive)

// GI50 lookup, compound = `CC(O)=C1C(=O)CCC1=O` , result: > 100 µM (inactive)
